# Test system: CCRF-CEM leukemia
# Protocol Description: NCI-60 one-dose screen, 48 h
# Conditions Used: 10 µM unless noted
Compounds without any hit were thinned out: in the full panel of roughly 83,000, 20% have a hit. The source made the active and inactive calls. The calls were made as follows: active = growth percent below 10; inactive = the rest.
Your answer must be one of the following: YES = active, NO = inactive

Known results for compounds:
O=S(=O)(NC1c2ccccc2C[C@H]1O)c1ccc(Cl)cc1Cl (stereo partly specified) = NO
O=C(O)c1ccc(-n2cc(CNc3cc(F)c(F)c(F)c3)c(-c3cccc(F)c3)n2)cc1 = NO

q: Fill in: this test's call for O=C(Cn1c(-c2ccccc2)nc2cc(Cl)c(Cl)cc21)N=Nc1c(O)[nH]c2ccc(Cl)cc12 is ___
a: YES

q: Fill in: this test's call for CC(C)(C)c1ccc(C(=O)Nc2nc3ccc(O)cc3s2)cc1 is ___
a: NO

q: Fill in: this test's call for N#Cc1cccc(CN2CCc3ncn(Cc4ccc(Cl)cc4)c(=O)c3C2)c1 is ___
a: NO

q: Fill in: this test's call for O=C1/C(=C/C=C/c2ccco2)SC(=S)N1c1ccccc1 is ___
a: NO

q: Fill in: this test's call for Nc1nc(N)c2c(n1)NC(c1ccc(C(F)(F)F)cc1)CC(c1ccc(Nc3nc(NCCO)nc(N4CCOCC4)n3)cc1)=N2 (stereo unspecified) is ___
a: NO

q: Fill in: this test's call for CCN1CCN(Cc2ccc(C(=O)Nc3ccc(C)c(Oc4ccc(-c5[nH]nc6ncnc(N)c56)cc4)c3)cc2C(F)(F)F)CC1 is ___
a: NO

q: Fill in: this test's call for COc1ccc(CCN2C(=O)CSC2=S)cc1 is ___
a: NO

q: Fill in: this test's call for O=C(CSc1nc2ccccc2c(=O)n1-c1ccccc1)Nc1cccc(C(=O)/C=C/c2ccccc2)c1 is ___
a: NO
